# Procedure details: Half life period after intravenous administration (1 mg/kg) was determined in dog (in vivo)
# Assay type: ADME, organism-based, Canis lupus familiaris
Outcome measure: half-life (min)
Your answer should be a plain number; it is taken to be in min.

Tell me half-life reported for O=C(Cn1c(Cl)cnc(NCC(F)(F)c2cccc[n+]2[O-])c1=O)NCc1ccccc1F
378

###

# Procedure details: Partition coefficient (logP) of the compound
# Type: physicochemical
# Condition notes: octanol/water
Below, each entry is listed alongside its reported logP.
Simply state the number, no unit and no words.

Example entries and their recorded answers appear below.
CCOc1ccccc1CNC(=O)Cn1c(Cl)cnc(NCC(F)(F)c2cccc[n+]2[O-])c1=O : 1.91
O=C(Cn1c(Cl)cnc(NCC(F)(F)c2cccc[n+]2[O-])c1=O)NCc1ccccc1F : 1.39
O=C(Cn1c(Cl)cnc(NCC(F)(F)c2cccc[n+]2[O-])c1=O)NCc1ccccc1OCC(F)(F)F : 1.93
O=C(Cn1c(Cl)cnc(NCC(F)(F)c2cccc[n+]2[O-])c1=O)NCc1c(F)cccc1C(F)(F)F : 1.89

Tell me logP reported for O=C(Cn1c(Cl)cnc(NCC(F)(F)c2cccc[n+]2[O-])c1=O)NCc1ccccc1
1.23

Tell me logP reported for O=C(Cn1c(Cl)cnc(NCC(F)(F)c2cccc[n+]2[O-])c1=O)NCc1c(F)cccc1F
1.23

###

# Procedure details: Oral bioavailability (5 mg/kg) was determined in rhesus
# Condition notes: Macaca mulatta, rhesus monkey, in vivo
Outcome measure: bioavailability (%)
Your answer should be a plain number; it is taken to be in %.

Tell me bioavailability reported for O=C(Cn1c(Cl)cnc(NCC(F)(F)c2cccc[n+]2[O-])c1=O)NCc1ccccc1F
21

###

# Organism: Homo sapiens
# Procedure details: Human microsome stabilities are reported as the ratio of the % remaining after a 1 hr incubation versus the internal standard thrombin inhibitor
# Assay type: functional
# Set-up: unit not given here
Below, each entry is listed alongside its reported Ratio.
Simply state the number, no unit and no words.

Tell me Ratio reported for O=C(Cn1c(Cl)cnc(NCC(F)(F)c2cccc[n+]2[O-])c1=O)NCc1ncccc1F
6.5

Tell me Ratio reported for O=C(Cn1c(Cl)cnc(NCC(F)(F)c2cccc[n+]2[O-])c1=O)NCc1ccccc1OC(F)F
0

Tell me Ratio reported for O=C(Cn1c(Cl)cnc(NCC(F)(F)c2cccc[n+]2[O-])c1=O)NCc1c(F)cccc1C(F)(F)F
0

Tell me Ratio reported for O=C(Cn1c(Cl)cnc(NCC(F)(F)c2cccc[n+]2[O-])c1=O)NCc1cccc(Br)c1
0.14

Tell me Ratio reported for O=C(Cn1c(Cl)cnc(NCC(F)(F)c2cccc[n+]2[O-])c1=O)NCc1ccccc1Cl
0.15

Tell me Ratio reported for O=C(Cn1c(Cl)cnc(NCC(F)(F)c2cccc[n+]2[O-])c1=O)NCc1cccc(OC(F)F)c1
0.54

Tell me Ratio reported for COc1ccccc1CNC(=O)Cn1c(Cl)cnc(NCC(F)(F)c2cccc[n+]2[O-])c1=O
0.44

Tell me Ratio reported for O=C(Cn1c(Cl)cnc(NCC(F)(F)c2cccc[n+]2[O-])c1=O)NCc1ccccc1OC(F)(F)F
0

Tell me Ratio reported for O=C(Cn1c(Cl)cnc(NCC(F)(F)c2cccc[n+]2[O-])c1=O)NCc1cc(F)ccc1F
0.05

Tell me Ratio reported for O=C(Cn1c(Cl)cnc(NCC(F)(F)c2cccc[n+]2[O-])c1=O)NCc1ccc(F)c(Cl)c1
0

Tell me Ratio reported for O=C(Cn1c(Cl)cnc(NCC(F)(F)c2cccc[n+]2[O-])c1=O)NCc1ncccc1Cl
1.3

Tell me Ratio reported for O=C(Cn1c(Cl)cnc(NCC(F)(F)c2cccc[n+]2[O-])c1=O)NCc1cccc(Cl)c1Cl
0.39

Tell me Ratio reported for Cc1cccc(CNC(=O)Cn2c(Cl)cnc(NCC(F)(F)c3cccc[n+]3[O-])c2=O)c1
0.58

Tell me Ratio reported for O=C(Cn1c(Cl)cnc(NCC(F)(F)c2cccc[n+]2[O-])c1=O)NCc1c(F)ccc(F)c1F
0.04

Tell me Ratio reported for O=C(Cn1c(Cl)cnc(NCC(F)(F)c2cccc[n+]2[O-])c1=O)NCc1cccc(Cl)c1
0

Tell me Ratio reported for O=C(Cn1c(Cl)cnc(NCC(F)(F)c2cccc[n+]2[O-])c1=O)NCc1c(F)cccc1F
3.4

Tell me Ratio reported for CCOc1ccccc1CNC(=O)Cn1c(Cl)cnc(NCC(F)(F)c2cccc[n+]2[O-])c1=O
0.08

Tell me Ratio reported for O=C(Cn1c(Cl)cnc(NCC(F)(F)c2cccc[n+]2[O-])c1=O)NCc1ccccc1
1.3

Tell me Ratio reported for O=C(Cn1c(Cl)cnc(NCC(F)(F)c2cccc[n+]2[O-])c1=O)NCc1cccc(F)c1
0.71

Tell me Ratio reported for O=C(Cn1c(Cl)cnc(NCC(F)(F)c2cccc[n+]2[O-])c1=O)NCc1ccccc1OCC(F)(F)F
0
